assay: Absorption spectrum in ethyl acetate solution (spectrophotometer UV-2400PC); format: physicochemical; details: 450 nm
Recorded Metric: Abs value at 450 nm when normalized to Abs = 1.0 at λmax
No unit in the answer, please; the number alone is enough.

CC1CC(C(C)(C)C)C(OC(=O)c2c(-c3ccccc3)c(C=C3N=C(NC(=O)CCCSc4cc(C(=O)O)cc(C(=O)O)c4)C(C#N)=C3c3ccccc3)[n]([Zn][OH])c2NC(=O)c2cc(F)cc(F)c2F)C(C(C)(C)C)C1 (stereo not shown) | 0.0083

For CC1CC(C(C)(C)C)C(OC(=O)C2=C(c3ccccc3)C3=Cc4c(-c5ccccc5)c(C(=O)OC5C(C(C)(C)C)CC(C)CC5C(C)(C)C)c(NC(=O)c5c(F)c(F)c(C(=O)O)c(F)c5F)[n]4[Zn-]([OH])[N+]3=C2NC(=O)c2c(F)c(F)c(C(=O)O)c(F)c2F)C(C(C)(C)C)C1 (stereo not shown) , write its Abs value at 450 nm when normalized to Abs = 1.0 at λmax.
0.0099

For CC1CC(C(C)(C)C)C(OC(=O)c2c(-c3ccccc3)c3[n](c2NC(=O)c2ccc(F)c(F)c2)[Zn-]([OH])[N+]2=C(NC(=O)C(C)Sc4cc(C(=O)O)cc(C(=O)O)c4)C(C#N)=C(c4ccccc4)C2=C3)C(C(C)(C)C)C1 (stereo not shown) , write its Abs value at 450 nm when normalized to Abs = 1.0 at λmax.
0.0173

For CC1CC(C(C)(C)C)C(OC(=O)c2c(-c3ccccc3)c3[n](c2NC(=O)c2cccc(F)c2C(=O)O)[Zn-]([OH])[N+]2=C(NC(=O)C(C)Sc4cc(C(=O)O)cc(C(=O)O)c4)C(C#N)=C(c4ccccc4)C2=C3)C(C(C)(C)C)C1 (stereo not shown) , write its Abs value at 450 nm when normalized to Abs = 1.0 at λmax.
0.0186

====

assay: Absorption spectrum in ethyl acetate solution (spectrophotometer UV-2400PC); type: physicochemical
Measured maximum absorption wavelength (λmax), listed per entry for reference.
Note: unit nm is implicit; provide only the numeric part.

For CC1CC(C(C)(C)C)C(OC(=O)C2=C(c3ccccc3)C3=Cc4c(-c5ccccc5)c(C(=O)OC5C(C(C)(C)C)CC(C)CC5C(C)(C)C)c(NC(=O)c5c(F)c(F)c(C(=O)O)c(F)c5F)[n]4[Zn-]([OH])[N+]3=C2NC(=O)c2c(F)c(F)c(C(=O)O)c(F)c2F)C(C(C)(C)C)C1 (centres unmarked) , write its maximum absorption wavelength (λmax).
561

For CC1CC(C(C)(C)C)C(OC(=O)c2c(-c3ccccc3)c3[n](c2NC(=O)c2cccc(C(F)(F)F)c2)[Zn-]([OH])[N+]2=C(NC(=O)C(C)Sc4cc(C(=O)O)cc(C(=O)O)c4)C(C#N)=C(c4ccccc4)C2=C3)C(C(C)(C)C)C1 (centres unmarked) , write its maximum absorption wavelength (λmax).
562

For CC1CC(C(C)(C)C)C(OC(=O)C2=C(c3ccccc3)C3=Cc4c(-c5ccccc5)c(C(=O)OC5C(C(C)(C)C)CC(C)CC5C(C)(C)C)c(NC(=O)c5c(F)c(F)c(F)c(F)c5F)[n]4[Zn-]([OH])[N+]3=C2NC(=O)c2c(F)c(F)c(F)c(F)c2F)C(C(C)(C)C)C1 (centres unmarked) , write its maximum absorption wavelength (λmax).
562

====

test: Absorption spectrum in ethyl acetate solution (spectrophotometer UV-2400PC); format: physicochemical; conditions: 450 nm
Measured Abs value at 450 nm when normalized to Abs = 1.0 at λmax, listed per entry for reference.
No unit in the answer, please; the number alone is enough.

Cc1c(C(=O)OC2C(C(C)(C)C)CC(C)CC2C(C)(C)C)c(NC(=O)c2ccccc2C(F)(F)F)[n]2c1C=C1C(c3ccccc3)=C(C#N)C(NC(=O)C(C)Sc3cc(C(=O)O)cc(C(=O)O)c3)=[N+]1[Zn-]2[OH] (centres unmarked) | 0.0154

Now examine the next entry.
For CC1=C(C(=O)OC2C(C(C)(C)C)CC(C)CC2C(C)(C)C)C(NC(=O)c2ccc(F)c([N+](=O)[O-])c2)=[N+]2C1=Cc1c(C)c(C(=O)OC3C(C(C)(C)C)CC(C)CC3C(C)(C)C)c(NC(=O)c3ccc(F)c([N+](=O)[O-])c3)[n]1[Zn-]2[OH] (centres unmarked) , write its Abs value at 450 nm when normalized to Abs = 1.0 at λmax.
0.0081

====

Measured molar absorption coefficient (ε), listed per entry for reference.
experiment: Absorption spectrum in ethyl acetate solution (spectrophotometer UV-2400PC); assay type: physicochemical

For CC1CC(C(C)(C)C)C(OC(=O)C2=C(c3ccccc3)C3=Cc4c(-c5ccccc5)c(C(=O)OC5C(C(C)(C)C)CC(C)CC5C(C)(C)C)c(NC(=O)c5cccc(C(F)(F)F)c5)[n]4[Zn-]([OH])[N+]3=C2NC(=O)c2cccc(C(F)(F)F)c2)C(C(C)(C)C)C1 (centres unmarked) [IIb-6] , write its molar absorption coefficient (ε).
114,000

For CC1=C(C(=O)OC2C(C(C)(C)C)CC(C)CC2C(C)(C)C)C(NC(=O)c2cccc(C(F)(F)F)c2)=[N+]2C1=Cc1c(C)c(C(=O)OC3C(C(C)(C)C)CC(C)CC3C(C)(C)C)c(NC(=O)c3cccc(C(F)(F)F)c3)[n]1[Zn-]2[OH] (centres unmarked) [IIa-6] , write its molar absorption coefficient (ε).
106,300

For CC1CC(C(C)(C)C)C(OC(=O)C2=C(c3ccccc3)C3=Cc4c(-c5ccccc5)c(C(=O)OC5C(C(C)(C)C)CC(C)CC5C(C)(C)C)c(NC(=O)c5cc(C(F)(F)F)cc(C(F)(F)F)c5)[n]4[Zn-]([OH])[N+]3=C2NC(=O)c2cc(C(F)(F)F)cc(C(F)(F)F)c2)C(C(C)(C)C)C1 (centres unmarked) [IIb-14] , write its molar absorption coefficient (ε).
117,400

For CC1CC(C(C)(C)C)C(OC(=O)C2=C(c3ccccc3)C3=Cc4c(-c5ccccc5)c(C(=O)OC5C(C(C)(C)C)CC(C)CC5C(C)(C)C)c(NC(=O)c5cc(F)c(F)c(F)c5)[n]4[Zn-]([OH])[N+]3=C2NC(=O)c2cc(F)c(F)c(F)c2)C(C(C)(C)C)C1 (centres unmarked) [IIb-32] , write its molar absorption coefficient (ε).
91,400

For CC1=C(C(=O)OC2C(C(C)(C)C)CC(C)CC2C(C)(C)C)C(NC(=O)c2ccc(C(F)(F)F)cc2F)=[N+]2C1=Cc1c(C)c(C(=O)OC3C(C(C)(C)C)CC(C)CC3C(C)(C)C)c(NC(=O)c3ccc(C(F)(F)F)cc3F)[n]1[Zn-]2[OH] (centres unmarked) [IIa-15] , write its molar absorption coefficient (ε).
116,700

For CC1=C(C(=O)OC2C(C(C)(C)C)CC(C)CC2C(C)(C)C)C(NC(=O)c2ccc(F)c([N+](=O)[O-])c2)=[N+]2C1=Cc1c(C)c(C(=O)OC3C(C(C)(C)C)CC(C)CC3C(C)(C)C)c(NC(=O)c3ccc(F)c([N+](=O)[O-])c3)[n]1[Zn-]2[OH] (centres unmarked) [IIa-25] , write its molar absorption coefficient (ε).
126,900

For CC1CC(C(C)(C)C)C(OC(=O)C2=C(c3ccccc3)C3=Cc4c(-c5ccccc5)c(C(=O)OC5C(C(C)(C)C)CC(C)CC5C(C)(C)C)c(NC(=O)c5cc(F)ccc5NS(C)(=O)=O)[n]4[Zn-]([OH])[N+]3=C2NC(=O)c2cc(F)ccc2NS(C)(=O)=O)C(C(C)(C)C)C1 (centres unmarked) [IIb-20] , write its molar absorption coefficient (ε).
121,000

For CC1CC(C(C)(C)C)C(OC(=O)C2=C(c3ccccc3)C3=Cc4c(-c5ccccc5)c(C(=O)OC5C(C(C)(C)C)CC(C)CC5C(C)(C)C)c(NC(=O)c5ccc(F)c(F)c5)[n]4[Zn-]([OH])[N+]3=C2NC(=O)c2ccc(F)c(F)c2)C(C(C)(C)C)C1 (centres unmarked) [IIb-13] , write its molar absorption coefficient (ε).
106,300

====

experiment: Absorption spectrum in ethyl acetate solution (spectrophotometer UV-2400PC); format: physicochemical
Measured maximum absorption wavelength (λmax), listed per entry for reference.
Note: unit nm is implicit; provide only the numeric part.

Reference set (7 entries):
CC1CC(C(C)(C)C)C(OC(=O)c2c(-c3ccccc3)c3[n](c2NC(=O)c2cc(C(F)(F)F)cc(C(F)(F)F)c2)[Zn-]([OH])[N+]2=C(NC(=O)C(C)Sc4cc(C(=O)O)cc(C(=O)O)c4)C(C#N)=C(c4ccccc4)C2=C3)C(C(C)(C)C)C1 (centres unmarked) [Ib-41] | 562
CC1=C(C(=O)OC2C(C(C)(C)C)CC(C)CC2C(C)(C)C)C(NC(=O)c2c(F)c(F)c(O)c(F)c2F)=[N+]2C1=Cc1c(C)c(C(=O)OC3C(C(C)(C)C)CC(C)CC3C(C)(C)C)c(NC(=O)c3c(F)c(F)c(O)c(F)c3F)[n]1[Zn-]2[OH] (centres unmarked) [IIa-39] | 553
CC(=O)NC1=[N+]2C(=Cc3c(-c4ccccc4)c(C(=O)OC4C(C(C)(C)C)CC(C)CC4C(C)(C)C)c(NC(=O)c4cc(F)c(F)c(F)c4)[n]3[Zn-]2[OH])C(c2ccccc2)=C1C#N (centres unmarked) [Ib-61] | 558
CC1CC(C(C)(C)C)C(OC(=O)c2c(-c3ccccc3)c(C=C3N=C(NC(=O)C(C)SCCCS(=O)(=O)[O-])C(C#N)=C3c3ccccc3)[n]([Zn][OH])c2NC(=O)c2cc(F)cc(F)c2)C(C(C)(C)C)C1.[Na+] (centres unmarked) [Ib-40] | 562
CC1CC(C(C)(C)C)C(OC(=O)c2c(-c3ccccc3)c(C=C3N=C(NC(=O)CCCSc4cc(C(=O)O)cc(C(=O)O)c4)C(C#N)=C3c3ccccc3)[n]([Zn][OH])c2NC(=O)c2cc(F)cc(F)c2F)C(C(C)(C)C)C1 (centres unmarked) [Ib-59] | 559
CC1=C(C(=O)OC2C(C(C)(C)C)CC(C)CC2C(C)(C)C)C(NC(=O)c2cc(C(F)(F)F)cc(C(F)(F)F)c2)=[N+]2C1=Cc1c(C)c(C(=O)OC3C(C(C)(C)C)CC(C)CC3C(C)(C)C)c(NC(=O)c3cc(C(F)(F)F)cc(C(F)(F)F)c3)[n]1[Zn-]2[OH] (centres unmarked) [IIa-14] | 551
CC1CC(C(C)(C)C)C(OC(=O)C2=C(c3ccccc3)C3=Cc4c(-c5ccccc5)c(C(=O)OC5C(C(C)(C)C)CC(C)CC5C(C)(C)C)c(NC(=O)c5ccc(C(F)(F)F)cc5)[n]4[Zn-]([OH])[N+]3=C2NC(=O)c2ccc(C(F)(F)F)cc2)C(C(C)(C)C)C1 (centres unmarked) [IIb-7] | 563

Now examine the next entry.
For CC1CC(C(C)(C)C)C(OC(=O)C2=C(c3ccccc3)C3=Cc4c(-c5ccccc5)c(C(=O)OC5C(C(C)(C)C)CC(C)CC5C(C)(C)C)c(NC(=O)c5ccc(F)c(F)c5)[n]4[Zn-]([OH])[N+]3=C2NC(=O)c2ccc(F)c(F)c2)C(C(C)(C)C)C1 (centres unmarked) [IIb-13] , write its maximum absorption wavelength (λmax).
560
